Below are pIC50 measurements against Sortilin (Homo sapiens) drawn from the literature.
// pIC50: -log10(molar conc.)

MOLECULAR STRING: Cc1ccnc(NC(=O)c2ccc(C(F)(F)F)cc2C(=O)O)n1
REPORTED RESULT: 6.44
--
MOLECULAR STRING: O=C(O)c1cc(C(F)(F)F)ccc1C(=O)Nc1ncc(C(F)(F)F)cc1Cl
REPORTED RESULT: 6.44
--
MOLECULAR STRING: COc1cccc(NC(=O)c2ccc(C(F)(F)F)cc2C(=O)O)n1
REPORTED RESULT: 5.89
--
MOLECULAR STRING: COc1cc(NC(=O)c2ccc(C(F)(F)F)cc2C(=O)O)ccn1
REPORTED RESULT: 6.12
--
MOLECULAR STRING: CC(C)C[C@H](NC(=O)c1cnn(C)c1)C(=O)O
REPORTED RESULT: 5.28

Input: // output pIC50; input CC(C)(C)c1cc(C(=O)O)n(Cc2nnc(-c3ccccc3)o2)n1 ; system Sortilin (Homo sapiens)
Output: 6.31

Input: // output pIC50; input Cc1cccc(NC(=O)c2ccc(Br)cc2C(=O)O)n1 ; system Sortilin (Homo sapiens)
Output: 6.15

Input: // output pIC50; input C=C(C)C[C@H](NC(=O)c1cc(Cl)cc(Cl)c1)C(=O)O ; system Sortilin (Homo sapiens)
Output: 4.77

Input: // output pIC50; input O=C(O)c1cc(C(F)(F)F)ccc1C(=O)NCc1ccccn1 ; system Sortilin (Homo sapiens)
Output: 5.80
